target: T1, human ROR1 (hROR1) on cells (human, UniProt Q01973 30-937); experiment: FACS, HEK293T-hROR1 cells; note: test concentration or dose not given here
T1 construct: whole, on cells; the cell line is named under assay; also called HEK293T-hROR1; 293T-hROR1
T1 sequence (Q01973 30-937): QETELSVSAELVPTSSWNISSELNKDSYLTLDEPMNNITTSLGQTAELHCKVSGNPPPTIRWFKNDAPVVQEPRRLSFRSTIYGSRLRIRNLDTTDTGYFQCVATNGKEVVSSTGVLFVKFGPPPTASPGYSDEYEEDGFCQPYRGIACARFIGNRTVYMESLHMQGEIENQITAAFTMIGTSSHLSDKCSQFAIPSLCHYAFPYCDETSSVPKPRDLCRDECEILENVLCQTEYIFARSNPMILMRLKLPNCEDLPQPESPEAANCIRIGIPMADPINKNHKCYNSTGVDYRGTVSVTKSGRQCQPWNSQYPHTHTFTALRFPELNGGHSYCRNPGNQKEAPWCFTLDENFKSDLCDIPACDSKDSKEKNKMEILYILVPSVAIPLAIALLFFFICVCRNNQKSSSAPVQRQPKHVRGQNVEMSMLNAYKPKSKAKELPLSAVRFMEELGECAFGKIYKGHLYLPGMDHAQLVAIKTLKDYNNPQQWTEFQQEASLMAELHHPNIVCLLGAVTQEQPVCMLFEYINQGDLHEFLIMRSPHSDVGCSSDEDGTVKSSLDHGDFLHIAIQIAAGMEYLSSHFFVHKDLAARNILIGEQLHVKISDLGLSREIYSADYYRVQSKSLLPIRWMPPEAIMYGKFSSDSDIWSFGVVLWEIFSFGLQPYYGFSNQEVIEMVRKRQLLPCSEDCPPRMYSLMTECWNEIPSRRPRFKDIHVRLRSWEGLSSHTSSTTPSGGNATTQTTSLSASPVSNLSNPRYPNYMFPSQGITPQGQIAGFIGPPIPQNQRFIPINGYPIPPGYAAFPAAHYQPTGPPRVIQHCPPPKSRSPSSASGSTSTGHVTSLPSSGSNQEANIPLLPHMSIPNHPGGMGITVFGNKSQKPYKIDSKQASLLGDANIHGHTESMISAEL
quantity_measured: MFI (MFI)

binder: PR002573 (antibody, human IgG1, kappa, V domains shown, PR001364 variant: VL S93A; hIgG1; also called anti-ROR1 1015M3-D8(L: S93A) hIgG1) VH: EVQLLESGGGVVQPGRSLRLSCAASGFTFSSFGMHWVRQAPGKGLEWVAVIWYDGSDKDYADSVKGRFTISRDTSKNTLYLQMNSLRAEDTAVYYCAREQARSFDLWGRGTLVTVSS VL: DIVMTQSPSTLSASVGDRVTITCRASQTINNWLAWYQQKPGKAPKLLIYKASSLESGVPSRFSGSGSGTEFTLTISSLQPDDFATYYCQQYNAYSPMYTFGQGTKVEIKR
quantity_measured: MFI
obs_value: 37200

binder: PR002575 (antibody, human IgG1, kappa, V domains shown, PR001364 variant: VH D54E, VL N92Q; hIgG1; also called anti-ROR1 1015M3-D8(H: D54E; L: N92Q) hIgG1) VH: EVQLLESGGGVVQPGRSLRLSCAASGFTFSSFGMHWVRQAPGKGLEWVAVIWYEGSDKDYADSVKGRFTISRDTSKNTLYLQMNSLRAEDTAVYYCAREQARSFDLWGRGTLVTVSS VL: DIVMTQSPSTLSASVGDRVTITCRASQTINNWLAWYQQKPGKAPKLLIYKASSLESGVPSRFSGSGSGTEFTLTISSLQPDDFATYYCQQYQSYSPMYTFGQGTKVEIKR
quantity_measured: MFI
obs_value: 33800

binder: PR002583 (antibody, human IgG1, kappa, V domains shown, PR001369 variant: VH D54E, VL N92Q; hIgG1; also called anti-ROR1 1015M3-H10(H: D54E; L: N92Q) hIgG1) VH: QVQLVESGGGVVQPGRSLRLSCAASGFTFSNYGIHWVRQAPGKGLEWVAIMWYEGSNTDYADSVKGRFTISRDTSKNTLFLQMNSLRAEDTAVYYCAREQARSFDLWGRGTLVTVSS VL: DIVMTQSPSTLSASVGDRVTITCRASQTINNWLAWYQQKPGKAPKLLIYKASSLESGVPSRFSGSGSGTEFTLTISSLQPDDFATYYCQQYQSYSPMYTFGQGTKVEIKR
quantity_measured: MFI
obs_value: 25300

binder: PR001356 (antibody, human IgG1, kappa, V domains shown, fully human IgG1, kappa; also called anti-ROR1 1015M2-E6 hIgG1; PR001356(WT)) VH: QVQLVESGGGVVQPGRSLRLSCAASGFTFSSYGMHWVRQAPGKGLEWVAVAWYDGVSEDYADSVKGRFTISRDNAKNTLYLQMNSLRAEDTAVYYCAREQARSFDLWGRGTLVTVSS VL: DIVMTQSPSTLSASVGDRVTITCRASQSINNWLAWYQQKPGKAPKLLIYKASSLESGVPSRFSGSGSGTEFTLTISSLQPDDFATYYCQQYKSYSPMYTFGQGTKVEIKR
quantity_measured: MFI
obs_value: 50900

binder: PR002582 (antibody, human IgG1, kappa, V domains shown, PR001369 variant: VH D54E; hIgG1; also called anti-ROR1 1015M3-H10(H: D54E) hIgG1) VH: QVQLVESGGGVVQPGRSLRLSCAASGFTFSNYGIHWVRQAPGKGLEWVAIMWYEGSNTDYADSVKGRFTISRDTSKNTLFLQMNSLRAEDTAVYYCAREQARSFDLWGRGTLVTVSS VL: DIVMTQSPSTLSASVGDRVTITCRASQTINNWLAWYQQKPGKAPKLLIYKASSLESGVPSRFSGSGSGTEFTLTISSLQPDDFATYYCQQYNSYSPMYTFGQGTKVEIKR
quantity_measured: MFI
obs_value: 32300
